Data provenance: PubChem BioAssay (NCI)

# Tested on: SR leukemia
# experimentalProtocol: NCI tumour cell line growth inhibition, 48 h
Where a SMILES comes first, the peptide text is derived from it. [ ]: non-standard residue; d: D form. The star is where a group is joined. Bn2Val = CC(C)[C@@H](C(=O)*)N(Cc1ccccc1)Cc1ccccc1; NH(4-F-benzyl) = Fc1ccc(CN*)cc1; NMeV = CN[C@H](C(=O)O)C(C)C; dNMeA = CN[C@H](C)C(=O)O
propertyName: log10 of TGI (log10 of the value in µM)
# values: log10(TGI), units µM

Give me measured log10 of TGI, please, for this compound: COc1ccc2c3ccc4c(c3n(C)c2c1)C(=O)C=CC4=O
1.35

Give me measured log10 of TGI, please, for this compound: Cc1ccc2cc3c(N)c4c(C)ccc(C)c4nc3nc2c1
0.87

Give me measured log10 of TGI, please, for this compound: C/C(Cc1ccc(Cl)cc1)=C(\c1ccc(OCCN2CCCCCC2)cc1)c1ccc(OC(=O)c2ccccc2)cc1
0.58

Give me measured log10 of TGI, please, for this compound: C=CC(=O)N1CC2(CCC(n3nc(-c4ccc(Oc5ccccc5)cc4)c4c(N)ncnc43)CC2)C1
1.28

Give me measured log10 of TGI, please, for this compound: CN(C)CCCNc1c2c(nc3ccc(Cl)cc13)CCCC2
0.84

Give me measured log10 of TGI, please, for this compound: COc1ccc(C2C(C#N)=C(N)Oc3c2sc2c(C)cccc32)cc1 (stereo not given)
1.18

Give me measured log10 of TGI, please, for this compound: COC(=O)/C=C1/SC(=Nc2ccc(C(F)(F)F)cc2)N(CCc2c[nH]c3ccc(O)cc23)C1=O
0.72

Give me measured log10 of TGI, please, for this compound: CCc1nc(N)nc(N)c1-c1ccc2c(c1)nnn2CCc1ccccc1
1.69

Give me measured log10 of TGI, please, for this compound: CC(C)[C@H](NC(=O)[C@H](C(C)C)N(Cc1ccccc1)Cc1ccccc1)C(=O)N(C)[C@H](C(=O)N1CCC[C@H]1C(=O)N(C)[C@H](C)C(=O)NCc1ccc(F)cc1)C(C)C (Bn2Val-V[NMeV]P[dNMeA]-{NH(4-F-benzyl)})
0.67

Give me measured log10 of TGI, please, for this compound: C=C1C(=O)[C@@]23CC[C@@H]4[C@@]5(C)CCC[C@@]4(OC5=O)C2(C)CC[C@]1(OC)C3 (stereo not given in full)
0.16

====

# Test system: COLO 205 colon
Where a SMILES comes first, the peptide text is derived from it. [ ]: non-standard residue; d: D form. The star is where a group is joined. Nle = CCCC[C@H](N)C(=O)O; Cbz = O=C(OCc1ccccc1)*
Hello, when you answer, please use one of the following outcomes: active, inactive

Outcome? CC/C(=C(\c1ccc(Cl)cc1)c1ccc(OCCN2CCCCC2)cc1)c1ccc(O)cc1
inactive

Outcome? O=C1C=C(Nc2ccc([N+](=O)[O-])cc2)c2ccccc2C1=O
inactive

Outcome? NC1CCCCC1N.O=NN1CCCCCC1(P(=O)([O-])[O-])P(=O)([O-])[O-].[Na+].[Pt+2]
inactive

Outcome? CCSc1nc2[nH]c(=S)[nH]c(=S)c2c(-c2ccc(OC)c(OC)c2)c1C#N
inactive

Outcome? c1ccc(N2CCN(CN3CCN(c4ccccc4)C3)C2)cc1
inactive

Outcome? COc1ccc(/C(COc2ccc3c(c2)oc(=O)c2cc(OC)ccc23)=N/O)cc1
inactive

Outcome? CCCOC(=O)c1ccc2c(c1)[N+](=O)C(C(=O)c1ccccc1)=C(C(F)(F)F)[N+]2=O
inactive

Outcome? Nc1nonc1-c1nc2cnccc2n1C1CCCCC1
inactive

Outcome? COC(=O)c1ccc2[nH]c(O)c(C(=Nc3ccc(N(C)C(=O)CN4CCN(C)CC4)cc3)c3ccc(OC)cc3)c2c1
inactive

Outcome? CCCC[C@@H](C=O)NC(=O)[C@H](CC(C)C)NC(=O)[C@H](CC(C)C)NC(=O)OCc1ccccc1 (Cbz-Leu-Leu-[Nle]-aldehyde)
inactive

Outcome? Cc1ccc2cc3c(N)c4c(C)ccc(C)c4nc3nc2c1
inactive

Outcome? C=CC(=O)N1CC2(CCC(n3nc(-c4ccc(Oc5ccccc5)cc4)c4c(N)ncnc43)CC2)C1
active
